Origin of the recorded values: PubChem BioAssay (NCI)

Exercise: for every item that follows, state its recorded TGI.
system: NCI-H460 lung; assay: NCI tumour cell line growth inhibition, 48 h

compound	TGI
O=C1CCCC/C1=C1\C(=O)Nc2cc(F)ccc21	> 100 µM
COC(=O)c1ccc(NC(=O)Nc2ccc3oc(=O)c4ccccc4c3c2)cc1	> 100 µM
COc1ccc2c(c1)[n+]([O-])c(-c1ccccc1)c(N)[n+]2[O-]	> 100 µM
O=c1[nH]c(=O)n(C2OC(CO)C(O)C2O)c2ccsc12 (stereo not given)	> 100 µM

// for each compound below, give its TGI
1. C/C(=N\Oc1cc(Cl)ncn1)c1ccccn1
2. Cc1cccc(C(=O)/C=C/SC(=NC#N)SCc2ccccc2)c1
3. Cc1ccc(S(=O)(=O)/N=C(\N)N(C)N=O)cc1
4. COC(=O)[C@]12CC[C@@H](C)[C@H](C)[C@@H]1C1=CC[C@@H]3[C@@]4(C)C(C=O)=C[C@@](C)(COC(=O)c5ccco5)[C@@H]4C(=O)C[C@@]3(C)[C@]1(C)CC2
5. CC1CCC(O)(C(C)(C(=O)O)c2ccccc2)CC1 (stereo not given)
6. CC(=O)O[C@H](C[C@H](C(C)C)N(C)C(=O)[C@@H](NC(=O)[C@H]1CCCCN1C)C(C)C)c1nc(C(=O)N[C@@H](Cc2ccccc2)C[C@H](C)C(=O)O)c(C(C)C)s1
7. Cc1cnc(-c2c[nH]c3ccccc23)nc1-c1c[nH]c2ccccc12
8. CC(=O)OC[C@@H]1[C@H]2CC[C@]3(C)[C@@H](OC(C)=O)CC[C@H]3[C@@H]2CC[C@H]1C1(C)SCCS1

Resp:
67.9 µM
> 100 µM
> 100 µM
> 100 µM
> 100 µM
5.05 µM
14.8 µM
> 25 µM

// for each compound below, give its TGI
1. Cc1ccc(C)c(NC(=O)NCc2ccc(Cl)cc2)c1
2. CCOc1cc2c(cc1O)/C(=N\O)C[C@@H]1[C@@H]2CC[C@]2(C)[C@@H](O)CC[C@@H]12
3. COc1cc(N/N=C/C#N)cc(OC)c1OC

Resp:
> 100 µM
1.47 µM
> 10 µM
